SYSTEM UNDER TEST: carboxylesterase 2 (CES2) (Homo sapiens, UniProt O00748)
Sequence (O00748 27-559): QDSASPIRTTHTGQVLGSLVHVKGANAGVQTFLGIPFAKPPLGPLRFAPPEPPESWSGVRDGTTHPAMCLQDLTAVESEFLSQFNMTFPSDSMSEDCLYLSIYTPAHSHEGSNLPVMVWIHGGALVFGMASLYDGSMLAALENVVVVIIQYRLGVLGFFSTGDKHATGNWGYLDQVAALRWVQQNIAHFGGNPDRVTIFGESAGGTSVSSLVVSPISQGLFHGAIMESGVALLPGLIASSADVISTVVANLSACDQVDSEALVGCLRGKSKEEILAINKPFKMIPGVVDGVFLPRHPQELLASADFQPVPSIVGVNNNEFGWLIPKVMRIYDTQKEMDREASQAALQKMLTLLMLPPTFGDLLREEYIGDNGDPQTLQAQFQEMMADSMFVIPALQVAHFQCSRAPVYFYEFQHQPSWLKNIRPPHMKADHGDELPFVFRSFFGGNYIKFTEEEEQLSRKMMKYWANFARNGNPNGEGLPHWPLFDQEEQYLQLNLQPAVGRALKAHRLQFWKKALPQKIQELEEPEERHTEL
ASSAY COMMENT: inhibition of recombinant human CES2
PROPERTY: IC50 (µM)
Answers are plain numbers, in µM.

# IC50 (compound: Cc1cc(OC(=O)NC2CCCCC2)ccc1F [WWL50] ) is 0.429

Sourced from paper PMC4694564
